Values from the OligoGym collection

molecular target: VCAM1; settings: ASO; note: test concentration or dose not given here
These antisense oligonucleotides have a phosphorothioate backbone; sugars and methylation of C are not fully specified.
What remaining target (mRNA or protein) (fraction of control) was measured for each of the following?

// query Quick one: remaining target (mRNA or protein) (fraction of control) for TGAACATATCAAGCATTAGC ?
// result 0.53

// query # get_value(readout='remaining target (mRNA or protein) (fraction of control)', item= CCCAGGCATTTTAAG )
// result 0.78

// query Please report the recorded remaining target (mRNA or protein) (fraction of control) for GTCTTTGTTGTTTTCTCTTCC .
// result 0.41

// query I would be grateful if you could share the reported remaining target (mRNA or protein) (fraction of control) for CCTCCAGTTCTCTC .
// result 0.32

// query Requested field: remaining target (mRNA or protein) (fraction of control). Item: GGCATTTTAAGTTGCTGTCG
// result 0.34

// query Look at this sequence and give its reported remaining target (mRNA or protein) (fraction of control). ACCTGTGTGTGCCTGGGAGGG
// result 0.26

// query What does the record list as remaining target (mRNA or protein) (fraction of control) for GCCTGGGAGGGTATTCAGCT ?
// result 0.58

// query So what's the measured remaining target (mRNA or protein) (fraction of control) for this one? CGATGCAGATACCGCGGAGT
// result 0.37

// query Dear colleague, I am looking for the recorded remaining target (mRNA or protein) (fraction of control) of the following sequence: CATCTTCCCAGGCAT
// result 0.45

// query # input sequence: AACATCTCCGTACCATGCCA ; wanted: its remaining target (mRNA or protein) (fraction of control)
// result 0.25

* * *

Can you tell me remaining target (mRNA or protein) (fraction of control) for the items I'm about to list?
target: PYGL; conditions: ASO
These antisense oligonucleotides have a phosphorothioate backbone; sugars and methylation of C are not fully specified.

// query Param readout= remaining target (mRNA or protein) (fraction of control); system= PYGL; entry= CAGCTTTACCACCAATGATA ; returns value.
// result 0.29

// query Notebook: pull reported remaining target (mRNA or protein) (fraction of control) for PYGL, entry CAGCGGTTCGCCCATGGCTG
// result 0.98

// query API: value(readout=remaining target (mRNA or protein) (fraction of control), system=PYGL) for record TCCCGGTGTTGGTGTGTTCT
// result 0.63

// query Please state recorded remaining target (mRNA or protein) (fraction of control) (tested on PYGL) of CTGCAAGTCCTGGGTTGCAG
// result 0.49

// query Param readout= remaining target (mRNA or protein) (fraction of control); system= PYGL; entry= GAAGTCCTTGAATACTTTAG ; returns value.
// result 0.4

// query Form field - read-out: remaining target (mRNA or protein) (fraction of control); system: PYGL; submitted item: GCAGGCAGCAAGTCTCCCAA
// result 0.29

* * *

target: SUMO1; settings: ASO
These antisense oligonucleotides have a phosphorothioate backbone; sugars and methylation of C are not fully specified.
reportedEndpoint: remaining target (mRNA or protein) (fraction of control)

// query Which remaining target (mRNA or protein) (fraction of control) value is on record for GGGTCTCCGCACAGCAGC ?
// result ≥ 1

// query Need remaining target (mRNA or protein) (fraction of control) of TCCATCTCCCACTGAAAG , thanks.
// result 0.53

// query Query: remaining target (mRNA or protein) (fraction of control); subject: ACTGCTATCCTGTCCAAT
// result 0.67

// query # query: remaining target (mRNA or protein) (fraction of control) of entry ATAATGAATAATGAGCAC
// result ≥ 1

// query May I ask what remaining target (mRNA or protein) (fraction of control) has been recorded for GGGTTTACAAATCCTTCC ?
// result ≥ 1

// query Name the reported remaining target (mRNA or protein) (fraction of control) value associated with the sequence AGATGTGTTGTCATTTTC
// result ≥ 1

// query For the sequence shown here, ACAATGAAAACAAACAAT , give the reported remaining target (mRNA or protein) (fraction of control).
// result ≥ 1

// query What remaining target (mRNA or protein) (fraction of control) value was documented for this sequence, ATTCACCTTCCTTCTTAT ?
// result 0.55

// query Need remaining target (mRNA or protein) (fraction of control), item GGCACTTCAGTAACTTTC
// result 0.79

// query I would be grateful if you could share the reported remaining target (mRNA or protein) (fraction of control) for GTTTCTTGAGATGTGTTG .
// result 0.86

// query Endpoint output: remaining target (mRNA or protein) (fraction of control) of TGAATCTCACTGCTATCC . Value?
// result ≥ 1

// query What remaining target (mRNA or protein) (fraction of control) value was documented for this sequence, CTCAGTTGAAGGTTTTGC ?
// result ≥ 1

// query Consider the sequence CCTCAAAGAGAAACCTGA and give its measured remaining target (mRNA or protein) (fraction of control).
// result ≥ 1

// query I have this sequence here, ATTCTCTGACCCTCAAAG , and I need its recorded remaining target (mRNA or protein) (fraction of control).
// result ≥ 1

// query Param item = TTCTTTTGGAGTATGATT ; retrieve measured remaining target (mRNA or protein) (fraction of control).
// result ≥ 1

// query Entry under review: ATGATTCTTTGAGTTTCT . Reported remaining target (mRNA or protein) (fraction of control)?
// result 0.59

// query What does the data say about its remaining target (mRNA or protein) (fraction of control)? Entry: TTCCTCCATTCCCAGTTC
// result ≥ 1

// query Return reported remaining target (mRNA or protein) (fraction of control); argument: ACTTCCATCTCCCACTGA
// result 0.47

// query Could you tell me which remaining target (mRNA or protein) (fraction of control) is on file for TTCTTTGAGTTTCTTGAG ?
// result ≥ 1

// query So what's the measured remaining target (mRNA or protein) (fraction of control) for this one? GTCTTTGACAGTATGATT
// result ≥ 1

// query For the sequence shown here, CTGTCCAATGACTTTGAG , give the reported remaining target (mRNA or protein) (fraction of control).
// result ≥ 1

// query What measured remaining target (mRNA or protein) (fraction of control) goes with TCACCTTATCTGTCATCT ?
// result ≥ 1

// query Looking for the measured remaining target (mRNA or protein) (fraction of control) of AATTTCCAGTATTTATGC , can you help?
// result 0.45

// query # remaining target (mRNA or protein) (fraction of control) lookup, item AAACAATAATGAATAATG
// result ≥ 1

// query Fill in: remaining target (mRNA or protein) (fraction of control) of CCAGGAGTGAAGTAATCA is ___
// result ≥ 1

// query Record request: remaining target (mRNA or protein) (fraction of control) value, item ACCACATTACAAAAGAAC
// result ≥ 1

// query Which remaining target (mRNA or protein) (fraction of control) value is on record for ACATGATGACGGTGGCTT ?
// result ≥ 1

// query Data request, read-out remaining target (mRNA or protein) (fraction of control), for CCCCTTCCCGACAGCACA
// result 0.92

// query What value of remaining target (mRNA or protein) (fraction of control) has been reported for the following sequence? AGGATTGAGGGAAAAGAA
// result ≥ 1

// query Record request: remaining target (mRNA or protein) (fraction of control) value, item GATAAACTTCAATCACAT
// result ≥ 1

// query GET /values?readout=remaining target (mRNA or protein) (fraction of control)&item= TTCATTGGAACACCCTGT
// result 0.32

// query Entry CTTTGGAGTTAGTCATTA has what remaining target (mRNA or protein) (fraction of control)?
// result ≥ 1

// query What does the record list as remaining target (mRNA or protein) (fraction of control) for AACTTCCGCTACGCCTCG ?
// result ≥ 1

// query Reported remaining target (mRNA or protein) (fraction of control), sequence CAGTATGATTCTTTGAGT : ____
// result 0.53

// query Quick one: remaining target (mRNA or protein) (fraction of control) of TCCGTTTTGAACACCACA ?
// result 0.29

// query Consider the sequence CAGATGTTTCAAAGAGAT and give its measured remaining target (mRNA or protein) (fraction of control).
// result ≥ 1

// query Item under review: AGCAGTGTTCTGTTGTAT . Reported remaining target (mRNA or protein) (fraction of control)?
// result ≥ 1

// query Sample GCAGTAACTTCCGCTACG — what was its remaining target (mRNA or protein) (fraction of control)?
// result ≥ 1

// query I have this sequence here, AAATCCTTCCCCTTCCCG , and I need its recorded remaining target (mRNA or protein) (fraction of control).
// result ≥ 1

// query So what does the record say about remaining target (mRNA or protein) (fraction of control) for CCACAGTTCAGTTCTCTG ?
// result 0.34
